Test system: JURKAT
PROTOCOL_DETAILS: selective drug sensitivity score (sDSS, relative to normal bone marrow) (sDSS (score)); higher = more potent and effective on the cell line relative to normal bone marrow cells;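 further: ALL cell lines in 384-well plates, five doses spanning 10,000-fold, each plate scaled between vehicle and 100 µmol/L benzalkonium chloride controls, sDSS an adapted area-under-curve metric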
PROTOCOL_CONDITIONS: 72 h
Think of 1 as a floor: if selective drug sensitivity score stands on it or above, it is criterion met; beneath it, criterion not met.

1. COc1cc(N2CCN(C)CC2)ccc1Nc1nccc(-c2cn(C)c3cnccc23)n1 [AZ191] (top concentration 10000 nM): criterion not met
2. CN(Cc1cnc2nc(N)nc(N)c2n1)c1ccc(C(=O)N[C@@H](CCC(=O)O)C(=O)O)cc1 [Methotrexate] (top concentration 5000 nM): criterion met
3. O=C(Nc1cccc(NC(=O)c2cccc(O)c2O)c1)c1cccc(O)c1O [MST-312] (top concentration 10000 nM): criterion met
4. Cn1cc(-c2[nH]c3cc(NC(=O)[C@H](N)C4CCCCC4)cc4c3c2C=NNC4=O)cn1 (top concentration 10000 nM): criterion met
5. Nc1ccccc1NC(=O)c1ccc(CNC(=O)OCc2cccnc2)cc1 [Entinostat] (top concentration 10000 nM): criterion met
6. CC[C@@H]1C(=O)OC[C@@H]1Cc1cncn1C [Pilocarpine] (top concentration 40000 nM): criterion not met
7. FC(F)(F)c1ccc(CNc2ccc(Cc3c[nH]c4ncc(Cl)cc34)cn2)cn1 [Pexidartinib] (top concentration 10000 nM): criterion met
8. Clc1ccc(C(c2ccccc2Cl)C(Cl)Cl)cc1 (stereo not drawn) [Mitotane] (top concentration 10000 nM): criterion not met
9. CCC1=C[C@@H]2CN(C1)Cc1c([nH]c3ccccc13)[C@@](C(=O)OC)(c1cc3c(cc1OC)N(C)[C@H]1[C@@](O)(C(=O)OC)[C@H](OC(C)=O)[C@]4(CC)C=CCN5CC[C@]31[C@@H]54)C2 [Vinorelbine] (top concentration 10000 nM): criterion met
10. O=C(NCc1ccncc1)C12CC3CC(C1)CC(c1ccc(Cl)cc1)(C3)C2 (top concentration 50000 nM): criterion met

Does the molecule CC(C)(C)c1cc(NC(=O)Nc2ccc(Oc3ccnc4[nH]c(=O)cnc34)cc2F)n(-c2ccccc2)n1 (top concentration 25000 nM) have recorded selective drug sensitivity score that is 1 or more?
criterion not met

Does the molecule C[C@H]1C=C2C(=O)O[C@H]3CC[C@@H](C1)[C@@]23O [Galiellalactone] (top concentration 25000 nM) have recorded selective drug sensitivity score that is 1 or more?
criterion met

Does the molecule CC(=O)c1cc2c(o1)C(=O)c1ccccc1C2=O [Napabucasin] (top concentration 20000 nM) have recorded selective drug sensitivity score that is 1 or more?
criterion not met

----------
Tested on: MHH-CALL-2
PROTOCOL_DETAILS: selective drug sensitivity score (sDSS, relative to normal bone marrow) (sDSS (score)); higher = more potent and effective on the cell line relative to normal bone marrow cells
PROTOCOL_CONDITIONS: 72 h
Think of 1 as a floor: if selective drug sensitivity score stands on it or above, it is t; beneath it, f.

Answered examples (5):
1. CCN1CCN(c2ccc(Nc3cc(N(C)C(=O)Nc4c(Cl)c(OC)cc(OC)c4Cl)ncn3)cc2)CC1 [Infigratinib] (top concentration 1000 nM): f
2. O=C(O)c1ccc(CN2CCC(CN[C@@H]3C[C@H]3c3ccccc3)CC2)cc1 (top concentration 100000 nM): f
3. O=C(Nc1ccc2[nH]nc(-c3ccncc3)c2c1)[C@@H]1CCN(CC(=O)N2CCN(c3ccc(-c4ncccn4)cc3)CC2)C1 (top concentration 10000 nM): t
4. COC12C(COC(N)=O)C3=C(C(=O)C(C)=C(N)C3=O)N1CC1NC12 (stereo in doubt) [Mitomycin_C] (top concentration 10000 nM): t
5. N.N.[Cl][Pt][Cl] [Cisplatin] (top concentration 100000 nM): t

Does the compound CN1CCC(CNc2ccc3ncc(-c4cccc(OC(F)(F)F)c4)n3n2)CC1 [SGI-1776] (top concentration 10000 nM) have recorded selective drug sensitivity score that is 1 or more?
t

----------
Test system: HPB-ALL
PROTOCOL_DETAILS: selective drug sensitivity score (sDSS, relative to normal bone marrow) (sDSS (score)); higher = more potent and effective on the cell line relative to normal bone marrow cells
PROTOCOL_CONDITIONS: 72 h
ATTRIBUTE_MEASURED: selective drug sensitivity score
Write the number on its own, no unit after it.

Observe how each entry below is paired with its result.
1) CC(C)[C@H]1C(=O)N[C@@H](CCCNC(=N)N)C(=O)NCC(=O)N[C@@H](CC(=O)O)C(=O)N[C@H](Cc2ccccc2)C(=O)N1C [Cilengitide] (top concentration 10000 nM): 0
2) Nc1ccccc1NC(=O)c1ccc(CNc2nccc(-c3cccnc3)n2)cc1 [Mocetinostat] (top concentration 10000 nM): 8.64

I have this molecule here, CN1CCN(C2CCN(C(=O)Nc3cc(Oc4ccc(NC(=O)C5(C(=O)Nc6ccc(F)cc6)CC5)c(F)c4)ccn3)CC2)CC1 [Golvatinib] (top concentration 2500 nM) , and I need its recorded selective drug sensitivity score.
6.76

----------
Tested on: MN-60
PROTOCOL_DETAILS: selective drug sensitivity score (sDSS, relative to normal bone marrow) (sDSS (score)); higher = more potent and effective on the cell line relative to normal bone marrow cells
PROTOCOL_CONDITIONS: 72 h
ATTRIBUTE_MEASURED: selective drug sensitivity score
Write the number on its own, no unit after it.

1) COCCNCc1ccc(-c2cc3nccc(Oc4ccc(NC(=O)C5(C(=O)Nc6ccc(F)cc6)CC5)cc4F)c3s2)nc1 [Sitravatinib] (top concentration 2500 nM): 0.78
2) COc1cc(CCc2cc(NC(=O)c3ccc(N4CC(C)NC(C)C4)cc3)n[nH]2)cc(OC)c1 (stereo not given) [AZD4547] (top concentration 1000 nM): -0.14
3) CCNC(=O)C[C@@H]1N=C(c2ccc(Cl)cc2)c2cc(OC)ccc2-n2c(C)nnc21 [Molibresib] (top concentration 10000 nM): 6.3
4) Cc1nc2cccc(N)c2c(=O)n1C1CCC(=O)NC1=O (stereo not given) [Avadomide (CC122)] (top concentration 10000 nM): 2.3

Next, consider the following molecule.
Lab note: need selective drug sensitivity score for CC(C)C[C@H](NC(=O)[C@@H](COC(C)(C)C)NC(=O)[C@H](Cc1ccc(O)cc1)NC(=O)[C@H](CO)NC(=O)[C@H](Cc1c[nH]c2ccccc12)NC(=O)[C@H](Cc1cnc[nH]1)NC(=O)[C@@H]1CCC(=O)N1)C(=O)N[C@@H](CCCNC(=N)N)C(=O)N1CCC[C@H]1C(=O)NNC(N)=O [Goserelin] (top concentration 10000 nM) on MN-60, anyone have it?
-0.06

----------
System: MHH-CALL-2
PROTOCOL_DETAILS: selective drug sensitivity score (sDSS, relative to normal bone marrow) (sDSS (score)); higher = more potent and effective on the cell line relative to normal bone marrow cells
PROTOCOL_CONDITIONS: 72 h
# key: entry, value: selective drug sensitivity score
Write the number on its own, no unit after it.

Observe how each entry below is paired with its result.
1) O=C(CCCCCCNC(=O)c1cnc(N(c2ccccc2)c2ccccc2)nc1)NO [Rocilinostat] (top concentration 10000 nM): 11.2
2) CCN(c1cc(-c2ccc(CN3CCOCC3)cc2)cc(C(=O)NCc2c(C)cc(C)[nH]c2=O)c1C)C1CCOCC1 [Tazemetostat] (top concentration 10000 nM): 6.72
3) O=C(Nc1c[nH]nc1-c1nc2ccc(CN3CCOCC3)cc2[nH]1)NC1CC1 [AT9283] (top concentration 1000 nM): 3.42
4) Cc1[nH]nc(C(F)(F)F)c1Cc1sc2c(c1C(=O)N1C[C@](C)(O)CO1)c(=O)n(C)c(=O)n2C(C)C [AZD3965] (top concentration 1000 nM): 1.4
5) O=C(Nc1cnn2ccc(N3CCC[C@@H]3c3cc(F)ccc3F)nc12)N1CC[C@H](O)C1 [Larotrectinib] (top concentration 1000 nM): -0.52
6) COCC[n+]1c2c(n(Cc3cnccn3)c1C)C(=O)c1ccccc1C2=O [Sepantronium_bromide] (top concentration 10000 nM): 22.8
7) CC(C)(C)Cn1c(N)nc2ccc(-c3[nH]c(C(C)(C)C)nc3-c3ccc(F)cc3)nc21 [Ralimetinib] (top concentration 10000 nM): 1.46
8) CO[C@@H]1[C@H](N(C)C(=O)c2ccccc2)C[C@H]2O[C@]1(C)n1c3ccccc3c3c4c(c5c6ccccc6n2c5c31)C(=O)NC4 [Midostaurin] (top concentration 10000 nM): 3.86

I have this compound here, C[C@@H]1COC(Nc2ccc3ncnc(Nc4ccc(OCc5nccs5)c(Cl)c4)c3c2)=N1 [Varlitinib] (top concentration 10000 nM) , and I need its recorded selective drug sensitivity score.
5.02

I have this compound here, CC(C)[C@H]1C(=O)N[C@@H](CCCNC(=N)N)C(=O)NCC(=O)N[C@@H](CC(=O)O)C(=O)N[C@H](Cc2ccccc2)C(=O)N1C [Cilengitide] (top concentration 10000 nM) , and I need its recorded selective drug sensitivity score.
7.1

I have this compound here, C=CC[C@@H]1/C=C(\C)C[C@H](C)C[C@H](OC)[C@H]2O[C@@](O)(C(=O)C(=O)N3CCCC[C@H]3C(=O)O[C@H](/C(C)=C/[C@@H]3CC[C@@H](O)[C@H](OC)C3)[C@H](C)[C@@H](O)CC1=O)[C@H](C)C[C@@H]2OC [Tacrolimus] (top concentration 10000 nM) , and I need its recorded selective drug sensitivity score.
24.6
